Assay: Inhibition of Fas-mediated cell death in oxygen and glucose deprived rat H9c2 cells treated 30 mins before oxygen and glucose deprivation measured after 6 hrs by DAPI staining
pEC50: −log10 of the molar value.
Property: pEC50; scope: individual compounds
Measure name: pEC50

[[record]]
compound = "COC(=O)c1ccc(Cl)cc1NC(=O)CSc1ccc(Br)cc1"
test_value = 6.02

[[record]]
compound = "COC(=O)c1ccccc1NC(=O)CSc1ccccn1"
test_value = 6.16

[[record]]
compound = "COC(=O)c1c(NC(=O)CSc2ccccc2N)cnn1CCc1ccccc1"
test_value = 6.29

[[record]]
compound = "COC(=O)c1sccc1NC(=O)CSc1ccc(OC)cc1"
test_value = 6.06

[[record]]
compound = "O=C(CSc1ccc(Br)cc1)Nc1ccccc1C(=O)O"
test_value = 5.65

[[record]]
compound = "COC(=O)c1nn(CCc2ccccc2)cc1NC(=O)COc1ccc(Br)cc1"
test_value = 6.45

[[record]]
compound = "COC(=O)c1nn(CCc2ccccc2)cc1NC(=O)CCc1ccccc1"
test_value = 6.37

[[record]]
compound = "COC(=O)c1oc2ccccc2c1NC(=O)COc1ccc(Br)cc1"
test_value = 5.98

[[record]]
compound = "COC(=O)c1c(NC(=O)CSc2cccc(OC)c2)cnn1CCc1ccccc1"
test_value = 6.36

[[record]]
compound = "COC(=O)c1cc(OC)c(OC)c(OC)c1NC(=O)CCSc1ccccn1"
test_value = 5.97

[[record]]
compound = "COC(=O)c1oc2ccccc2c1NC(=O)CSc1ccc(Br)cc1"
test_value = 6.18

[[record]]
compound = "COC(=O)c1oc2ccccc2c1NC(=O)CSc1ccc([N+](=O)[O-])cc1"
test_value = 6.24

[[record]]
compound = "COC(=O)c1sccc1NC(=O)CSc1ccccc1"
test_value = 6.10

[[record]]
compound = "COC(=O)c1c(NC(=O)CSc2ccc(Br)cc2)cnn1CCc1ccccc1"
test_value = 6.29

[[record]]
compound = "COC(=O)c1c(NC(=O)CSc2ccc([N+](=O)[O-])cc2)cnn1CCc1ccccc1"
test_value = 6.34

[[record]]
compound = "COC(=O)c1oc2cccc(Cl)c2c1NC(=O)CSc1ccccn1"
test_value = 6.19

[[record]]
compound = "COc1cc(NC(=O)CSc2ccc(Br)cc2)c(C2=NCCO2)cc1OC"
test_value = 6.02

[[record]]
compound = "COC(=O)c1ccccc1NC(=O)CSc1ccccc1"
test_value = 6.25

[[record]]
compound = "O=C(CCSc1ccccn1)Nc1cc(Cl)ccc1C1=NCCO1"
test_value = 5.76

[[record]]
compound = "COC(=O)c1ccsc1NC(=O)CSc1ccccc1"
test_value = 6.14

[[record]]
compound = "COC(=O)c1sc2ccccc2c1NC(=O)CSc1ccccc1"
test_value = 6.16

[[record]]
compound = "COC(=O)c1ccsc1NC(=O)CSc1ccc(Br)cc1"
test_value = 6.12

[[record]]
compound = "O=C(CSc1ccc(Br)cc1)Nc1c(C(=O)O)oc2ccccc12"
test_value = 6.14

[[record]]
compound = "COC(=O)c1sccc1NC(=O)CCSc1ccc(Br)cc1"
test_value = 5.89

[[record]]
compound = "CN(C)C(=O)c1sccc1NC(=O)CSc1ccc(Br)cc1"
test_value = 6.07

[[record]]
compound = "COC(=O)c1sccc1NC(=O)CN(C)c1ccccc1"
test_value = 6.18

[[record]]
compound = "COC(=O)c1sccc1NC(=O)CSc1cccc(OC)c1"
test_value = 6.24

[[record]]
compound = "COC(=O)c1sccc1NC(=O)CSc1ccc(Br)cc1"
test_value = 6.37

[[record]]
compound = "COC(=O)c1sc2ncccc2c1NC(=O)CCSc1ccccn1"
test_value = 6.31

[[record]]
compound = "COC(=O)c1cc(Br)cc(Br)c1NC(=O)C(Sc1ccc(Br)cc1)c1ccccc1 (stereo not drawn)"
test_value = 5.80

[[record]]
compound = "COC(=O)c1sccc1NC(=O)CCSc1ccccc1"
test_value = 6.30

[[record]]
compound = "COC(=O)c1ccc(Cl)cc1NC(=O)CCSc1ccccn1"
test_value = 5.99

[[record]]
compound = "COc1cc(C(=O)O)c(NC(=O)CCSc2ccccn2)c(OC)c1OC"
test_value = 5.68

[[record]]
compound = "COC(=O)c1oc2cccc(Cl)c2c1NC(=O)CSc1ccc(Br)cc1"
test_value = 5.94

[[record]]
compound = "COC(=O)c1cc(Br)cc(Br)c1NC(=O)CCSc1ccccn1"
test_value = 6.03

[[record]]
compound = "COC(=O)c1cc(OC)c(OC)cc1NC(=O)CCSc1ccccn1"
test_value = 5.88

[[record]]
compound = "O=C(CSc1ccc(Br)cc1)Nc1c(Br)cc(Br)cc1C(=O)O"
test_value = 5.91

[[record]]
compound = "COC(=O)c1sccc1NC(=O)COc1ccc(Br)cc1"
test_value = 6.05

[[record]]
compound = "COC(=O)c1ccsc1NC(=O)CCSc1ccc(Br)cc1"
test_value = 6.23

[[record]]
compound = "COC(=O)c1oc2cccc(Cl)c2c1NC(=O)CCSc1ccccn1"
test_value = 6.20

[[record]]
compound = "COC(=O)c1sc2ccccc2c1NC(=O)CCSc1ccc(Br)cc1"
test_value = 6.14

[[record]]
compound = "O=C(O)c1cc(Cl)ccc1NC(=O)C(Sc1ccc(Br)cc1)c1ccccc1 (stereo not drawn)"
test_value = 5.70

[[record]]
compound = "Cc1csc(C(=O)O)c1NC(=O)CSc1ccc(Br)cc1"
test_value = 5.95


Measured values drawn from BindingDB's records for doi:10.1016/j.bmcl.2013.07.018 for this set.
